B1: Zinc finger homeobox protein 4, residues 2086 to 2141; numbered along this chain, Q86UP3 (parent)
chain: RPRTRITDDQLKILRAYFDINNSPSEEQIQEMAEKSGLSQKVIKHWFRNTLFKERQ

Variants of: B1
Experiment: abundance fitness (aPCA) (normalised: wild type 0, dead -1); higher = more abundant; growth selection in yeast, the domain comes from the species named
Conditions: Homo sapiens
// label = yes (1) if abundance fitness is not less than 0.03, otherwise no (0)

The examples below pair each entry with its known result.
Change	Group
R48I	no (0)
Q40H	no (0)
Q40K	yes (1)
D19P	no (0)
F18Y	yes (1)
K41I	no (0)
S39G	no (0)
N22S	yes (1)

Lookup: Please indicate if the recorded abundance fitness for S36I meets or exceeds 0.03.
Found: no (0)

Lookup: Please indicate if the recorded abundance fitness for I43A meets or exceeds 0.03.
Found: no (0)

Lookup: Please indicate if the recorded abundance fitness for T50D meets or exceeds 0.03.
Found: yes (1)
